- System: HepG2
- Assay Explanation: GSK_TCMDC: Percent inhibition of human HepG2 cell line. Test compounds present at 10uM.
- Format: functional
Assign true to entries whose Inhibition meets or exceeds 10%; assign false to the rest.

1. O=C(NCCCCCN1CCC(c2ccc(O)cc2)CC1)c1ccc(-c2ccccc2)cc1	true
2. O=C(Nc1ccccc1Cl)N(Cc1cc(Cl)cc(Cl)c1)CC(O)COc1ccc(Cl)c(F)c1 (centres undefined)	false
3. Cc1cc(NC2CCCC2)nc(Nc2ccccc2C)n1	false
4. CS(=O)(=O)CCNCc1cccc(-c2cc3c(Nc4ccc5c(cnn5Cc5ccccc5)c4)ncnc3s2)c1.O=C(O)C(F)(F)F	true
5. Cc1cc(N(C)CCN(C)C)nc(Nc2ccc(Br)cc2)n1	false
6. Cc1cccc2nc(-c3ccc(-c4cccc(NC(=O)c5cncn5C)c4)cc3)[nH]c12	false
7. Clc1ccc2c(NCc3ccccn3)ccnc2c1	false
8. c1ccc2c(CNc3nc(NCC4CCCCC4)nc4[nH]cnc34)cccc2c1	false
9. CCOc1cc(CC)ccc1C1CCN(CCCCNC(=O)c2ccc(NC(=O)c3ccc(Cl)cc3)cc2)CC1.Cl	true
10. COc1ccc(NC(=O)/C=C/c2cc(F)cc(C(F)(F)F)c2)cc1OCCN(C(C)C)C(C)C.O=C(O)C(F)(F)F	true
11. Cc1ccc(C(NC(=O)C2CCCCC2)c2ccc3cccnc3c2O)cc1 (centres undefined)	true
12. O=C(C=Cc1ccc(Cl)c(Cl)c1)NCCCCCN1CCC(CCCNC(=O)C2CC2c2ccccc2)CC1 (centres undefined)	true
13. COc1c(C2CCN(CCCCNC(=O)c3ccc(-c4ccc(Cl)cc4)cc3)CC2)ccc2c1C(C)(C)CCC2(C)C	true
14. COc1c(C2CCN(CCCCNC(=O)c3ccc(-c4ccc(C#N)cc4)cc3)CC2)ccc2c1C(C)(C)CCC2(C)C	true
15. O=C(NC1CCN(c2ccc(F)cc2[N+](=O)[O-])CC1)c1cccs1	false
16. CC1(CCc2ccccc2)N=C(N)N=C(N)C1c1ccc(Cl)c(Cl)c1.Cl (centres undefined)	true
17. CC(C)COc1ccc(Cl)cc1Cc1ccc(-c2nc3ccc(F)c(F)c3[nH]2)o1	true
18. CN1CCN(Cc2cccc(-c3ccc4c(Nc5ccc(F)cc5Cl)ccnc4c3)c2)CC1	true
19. CNC(=O)NC1=NC(C)(C)N(OCc2ccc(Cl)c(Cl)c2)C(NC(=O)NC)=N1	false
20. CC(NC(=O)c1ccc(O)c(-c2ccc(Cl)c(Cl)c2)c1)C(=O)NCCN1CCCC1 (centres undefined)	false
21. CN1CCN(c2ccnc3ccc(NC(=O)Cc4ccc(-c5ccncc5)c5ccccc45)cc23)CC1	true
22. Cl.N#Cc1ccc2c(c1)CCN(CCC1CCC(NC(=O)/C=C/c3ccc4ccccc4c3)CC1)CC2 (centres undefined)	true
23. COc1ccc(Nc2nc(N3CCCC3)c3ccccc3n2)cc1.Cl	true
24. COc1ccc2nccc([C@@H](O)CN3CCC(NCc4ccc5c(n4)NCCC5)CC3)c2c1	true
25. CC1CN(c2ccnc3ccc(Sc4ccc(Oc5ccccc5)cc4)cc23)CC(C)N1.Cl (centres undefined)	true
26. O=C(NCc1ccccc1)Nc1ccc(-c2cccc(-c3nc4cc(C(F)(F)F)ccc4[nH]3)c2)cc1	true
27. COc1ccc(NC(=O)C2c3ccccc3C(=O)N(C3CCCC3)C2c2cccs2)c(OC)c1 (centres undefined)	false
28. CCOC(=O)Nc1cc(-c2csc(N=C(N)N)n2)cc([N+](=O)[O-])c1	true
29. O=C(Nc1cccc(C(F)(F)F)c1)NC1CCN(c2ccnc3ccccc23)C1.O=C(O)C(F)(F)F (centres undefined)	true
30. Cc1ccc2nc(Cl)c3cc(C(=O)NCCCN4CCCC4)sc3c2c1	true
31. Cc1ccc(NC(=O)NC2CCN(CCCCCNC(=O)/C=C/c3ccc(Cl)c(Cl)c3)CC2)cc1C	true
32. CCn1c(Sc2ccc([N+](=O)[O-])c(C#N)c2)nnc1-c1cccc(Cl)c1	false
33. Cc1[nH]c(C)c(-c2ccc(OCCCCSc3ccncc3)cc2)c(=O)c1Br	false
34. Nc1nc(-c2ccc3c(Nc4ccc(F)c(Cl)c4)ccnc3c2)cs1	true
35. O=c1cc(NCCCNC(c2ccccc2)c2ccc(Cl)c(Cl)c2)[nH]c2ccccc12 (centres undefined)	true
36. Cc1cccc(-n2nc(C)c3c2NC(=O)CC3C(=O)c2ccc(Cl)s2)c1 (centres undefined)	true
37. Cc1cc(=NN=Cc2ccc(F)cc2)c2cccc(C)c2[nH]1	false
38. NC(=O)c1cc2nc(Nc3ccc(F)cc3)nc(Nc3ccc(S(N)(=O)=O)cc3)c2[nH]1.O=CO	false
39. NC1CCCN(Cc2ccc(-c3cccc(-c4nc5ccccc5[nH]4)c3)cc2)C1.O=C(O)C(F)(F)F (centres undefined)	true
